- experimental-target: GGT (Equus caballus)
- Sequence (A0A9L0SYL6 entry or part of it): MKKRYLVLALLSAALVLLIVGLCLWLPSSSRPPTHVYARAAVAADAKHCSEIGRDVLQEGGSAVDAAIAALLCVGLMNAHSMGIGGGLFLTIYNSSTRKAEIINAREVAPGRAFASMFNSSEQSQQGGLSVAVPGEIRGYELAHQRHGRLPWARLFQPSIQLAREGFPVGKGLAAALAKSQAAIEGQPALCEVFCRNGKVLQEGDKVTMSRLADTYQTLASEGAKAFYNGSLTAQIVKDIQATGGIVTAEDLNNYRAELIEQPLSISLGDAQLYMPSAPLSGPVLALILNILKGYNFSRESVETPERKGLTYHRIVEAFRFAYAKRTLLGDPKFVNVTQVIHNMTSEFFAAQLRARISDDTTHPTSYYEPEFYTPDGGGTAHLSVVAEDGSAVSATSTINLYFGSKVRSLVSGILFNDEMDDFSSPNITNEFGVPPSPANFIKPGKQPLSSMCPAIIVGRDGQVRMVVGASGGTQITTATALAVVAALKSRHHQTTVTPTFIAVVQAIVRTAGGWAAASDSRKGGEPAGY
- procedure-text: Kinetics of GGT inhibition (Ki) varying donor GpNA or acceptor Gly-Gly concentration
- Format: biochemical, horse
- test-settings: read-out: Ki (GpNA); varying donor substrate GpNA, Gly-Gly fixed; average of Michaelis-Menten and Lineweaver-Burk
# Ki per entry
# output: bare number, implied unit µM

INSERT INTO measurements (compound, number) VALUES
  ('[N-]=[N+]=CC(=O)CC[C@H](N)C(=O)O [DON, 6-diazo-5-oxo norleucine, reference compound]', 156);

As a next step, examine the compound that follows.
Q) Which value of Ki has been reported for C[N+](C)(C)C(Cc1cnc(S)[nH]1)C(=O)[O-] (stereo not drawn) [Erg, N-alpha-trimethyl-2-thiohistidine, reference compound] in the records?
A) 229
